biological target: UniProt:Q9UQD0; assay: Sodium Influx Assay (Flux), NaV1.6; type: cell-based; conditions: Trex HEK293 cells, ANG2 dye, inactivated state;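 also: Tetracycline-induced cells, compounds applied for one hour at room temperature with modulators holding channels open, IC50 from percent inhibition of sodium influx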
Sequence (Q9UQD0 whole entry, looked up): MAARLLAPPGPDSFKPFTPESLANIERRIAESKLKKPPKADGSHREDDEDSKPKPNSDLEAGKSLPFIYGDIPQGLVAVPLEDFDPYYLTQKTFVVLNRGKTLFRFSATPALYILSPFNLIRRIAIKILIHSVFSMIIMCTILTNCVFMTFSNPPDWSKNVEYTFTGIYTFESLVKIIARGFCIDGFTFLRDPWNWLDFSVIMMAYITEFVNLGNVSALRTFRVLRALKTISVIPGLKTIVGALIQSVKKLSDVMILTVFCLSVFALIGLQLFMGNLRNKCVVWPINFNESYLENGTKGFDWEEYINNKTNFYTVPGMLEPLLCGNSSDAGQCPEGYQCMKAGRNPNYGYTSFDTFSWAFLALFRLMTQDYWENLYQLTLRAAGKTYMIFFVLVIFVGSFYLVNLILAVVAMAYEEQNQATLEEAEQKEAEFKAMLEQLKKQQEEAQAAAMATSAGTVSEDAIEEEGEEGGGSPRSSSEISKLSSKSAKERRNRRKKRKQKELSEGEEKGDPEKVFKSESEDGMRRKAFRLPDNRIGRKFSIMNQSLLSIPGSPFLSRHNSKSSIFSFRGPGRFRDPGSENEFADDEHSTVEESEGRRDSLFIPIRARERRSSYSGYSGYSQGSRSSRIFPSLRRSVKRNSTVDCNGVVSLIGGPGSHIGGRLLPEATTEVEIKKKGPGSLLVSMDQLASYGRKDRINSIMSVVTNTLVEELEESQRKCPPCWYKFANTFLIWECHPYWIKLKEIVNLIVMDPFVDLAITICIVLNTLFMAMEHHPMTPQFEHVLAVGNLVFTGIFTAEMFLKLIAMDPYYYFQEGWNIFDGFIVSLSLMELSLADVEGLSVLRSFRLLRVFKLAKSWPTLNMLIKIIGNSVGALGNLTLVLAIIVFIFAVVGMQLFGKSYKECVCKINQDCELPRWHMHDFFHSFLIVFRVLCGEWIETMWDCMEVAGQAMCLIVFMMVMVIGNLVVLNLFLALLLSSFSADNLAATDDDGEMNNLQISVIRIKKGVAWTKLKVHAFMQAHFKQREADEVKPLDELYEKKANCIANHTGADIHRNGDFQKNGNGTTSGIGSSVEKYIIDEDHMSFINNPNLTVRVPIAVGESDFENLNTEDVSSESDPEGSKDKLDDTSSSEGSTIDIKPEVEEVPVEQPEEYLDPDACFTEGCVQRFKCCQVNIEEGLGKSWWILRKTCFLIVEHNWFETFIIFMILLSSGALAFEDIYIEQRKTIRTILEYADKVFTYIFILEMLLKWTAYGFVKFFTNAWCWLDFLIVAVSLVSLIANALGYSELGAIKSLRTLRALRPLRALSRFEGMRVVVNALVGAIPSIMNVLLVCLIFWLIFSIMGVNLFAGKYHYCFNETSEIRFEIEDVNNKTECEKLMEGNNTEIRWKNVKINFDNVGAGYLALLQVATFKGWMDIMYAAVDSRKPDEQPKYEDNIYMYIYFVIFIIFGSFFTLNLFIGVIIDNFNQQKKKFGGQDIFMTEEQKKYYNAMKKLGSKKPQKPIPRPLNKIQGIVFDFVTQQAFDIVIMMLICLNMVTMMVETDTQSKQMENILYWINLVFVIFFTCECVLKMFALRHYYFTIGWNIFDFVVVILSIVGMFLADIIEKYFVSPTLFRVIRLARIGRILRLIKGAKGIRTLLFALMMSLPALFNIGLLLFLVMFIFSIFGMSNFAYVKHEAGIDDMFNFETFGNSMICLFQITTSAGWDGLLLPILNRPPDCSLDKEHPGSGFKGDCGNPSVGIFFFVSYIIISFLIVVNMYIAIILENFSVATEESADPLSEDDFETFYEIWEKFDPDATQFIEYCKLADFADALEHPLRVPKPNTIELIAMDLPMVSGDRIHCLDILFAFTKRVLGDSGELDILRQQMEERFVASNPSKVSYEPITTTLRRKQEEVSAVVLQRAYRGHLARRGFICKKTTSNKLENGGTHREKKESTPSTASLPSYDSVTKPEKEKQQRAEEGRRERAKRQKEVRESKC
Sequence (Q07699 whole entry partner, looked up): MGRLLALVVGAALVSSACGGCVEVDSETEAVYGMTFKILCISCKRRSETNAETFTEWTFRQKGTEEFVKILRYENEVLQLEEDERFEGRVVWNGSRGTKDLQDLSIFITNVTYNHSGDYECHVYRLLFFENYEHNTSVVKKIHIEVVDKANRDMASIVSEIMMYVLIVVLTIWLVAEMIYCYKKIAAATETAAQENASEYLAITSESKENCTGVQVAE
quantity: IC50 (nM)
// units = nM; emit number, no label

CC(C)CN(C)Cc1cccc(F)c1CNc1cc(F)c(S(=O)(=O)Nc2cscn2)c(F)c1	342
O=S(=O)(Nc1nccs1)c1cc(Cl)c(NC(c2ccccc2)C2CC2)cc1F (centres unmarked)	216
CC[C@@H](Nc1cc(F)c(S(=O)(=O)Nc2nccs2)cc1Cl)c1ccccc1	791
O=S(=O)(Nc1nccs1)c1cc(Cl)c(N[C@H]2CCCc3ccccc32)cc1F	1660

Then there is this compound:
// query IC50 value for entry C[C@H](Nc1cc(F)c(S(=O)(=O)Nc2cscn2)cc1Cl)c1cc(O)ccc1F 669
